Where these numbers come from: patent US10858316B2

In this section, each of the compounds is paired with its reported Mcl-1 Exp ΔG.
Target: Mcl-1 (Homo sapiens (Human))
Test: Fluorescence polarization competition assay (FPCA), Mcl-1 / FITC-Bak BH3 peptide
Type: binding
Details: ΔG=−RTlnKi from experimental Ki
API: value field is a number in kcal/mol; no unit string.

Use the examples below as a reference point.
molecular_string	Mcl-1 Exp ΔG (kcal/mol)
O=C(O)c1cc(S(=O)(=O)Nc2ccc(C(F)(F)F)cc2)c2ccccc2c1O	-7.64
Cc1cc(Oc2ccc(N(C3CCCC3)S(=O)(=O)c3cc(C(=O)O)c(O)c4ccccc34)cc2)cc(C)c1Cl	-10.20
CC(C)CN(c1ccc(OC(C)C)cc1)S(=O)(=O)c1cc(C(=O)O)c(O)c2ccccc12	-8.61
N#Cc1cccc(NS(=O)(=O)c2cc(C(=O)O)c(O)c3ccccc23)c1	-6.23
O=C(O)c1cc(S(=O)(=O)NCc2cccc(Cl)c2)c2ccccc2c1O	-7.22

Input: Request the reported Mcl-1 Exp ΔG associated with "CC(C)c1ccc(NS(=O)(=O)c2cc(C(=O)O)c(O)c3ccccc23)cc1"
Output: -7.38

Input: Request the reported Mcl-1 Exp ΔG associated with "COc1c(C(=O)O)cc(S(=O)(=O)N(CC(C)C)c2ccc(Br)cc2)c2ccccc12"
Output: -6.31

Input: Request the reported Mcl-1 Exp ΔG associated with "O=C(O)c1cc(S(=O)(=O)Nc2ccc([N+](=O)[O-])cc2)c2ccccc2c1O"
Output: -7.29

###

Target: Mcl-1 (Homo sapiens (Human), UniProt Q07820)
Sequence (Q07820 172-327): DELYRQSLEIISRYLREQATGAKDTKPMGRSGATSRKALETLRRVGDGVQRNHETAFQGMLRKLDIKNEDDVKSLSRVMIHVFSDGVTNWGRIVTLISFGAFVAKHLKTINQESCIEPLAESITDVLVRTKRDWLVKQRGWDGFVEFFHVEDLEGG
Test: Fluorescence polarization competition assay (FPCA), Mcl-1 / FITC-Bak BH3 peptide
Assay type: binding
Details: FPCA with FITC-Bak; Ki from IC50 by Nikolovska-Coleska equation; read-out: Mcl-1 Ki
I'd appreciate it if you marked entries Satisfied when Ki is lower than 4 µM and Not satisfied when it is not.

Known results for compounds:
compound	label_class
N#Cc1cccc(NS(=O)(=O)c2cc(C(=O)O)c(O)c3ccccc23)c1	Not satisfied
CC(C)CN(c1ccc(C(=O)Oc2ccccc2)c(O)c1)S(=O)(=O)c1ccc(Oc2ccccc2)cc1	Not satisfied
CC(C)CN(c1ccc(O)c(C(=O)O)c1)S(=O)(=O)c1ccc2ccccc2c1 [jy-5-299 18bb]	Not satisfied
O=C(O)C1Cc2ccccc2N(S(=O)(=O)c2ccc3ccccc3c2)C1 (racemic)	Not satisfied
CC(C)CN(c1cccc(C(=O)O)c1)S(=O)(=O)c1ccc2ccccc2c1 [4jc177-3 18ab]	Not satisfied

Input: Lab note: confirm whether the reported Ki for this compound is below 4 µM, equality not counting. compound: "Cc1cc(Oc2ccc(NS(=O)(=O)c3cc(C(=O)O)c(O)c4ccccc34)cc2)cc(C)c1Cl"
Output: Satisfied

Input: Lab note: confirm whether the reported Ki for this compound is below 4 µM, equality not counting. compound: O=C(O)c1ccc(N(C2CCCC2)S(=O)(=O)c2ccc3ccccc3c2)cc1O [LC-4-083 13ba]
Output: Not satisfied

Input: Lab note: confirm whether the reported Ki for this compound is below 4 µM, equality not counting. compound: "Cc1ccc(Oc2ccc(NS(=O)(=O)c3cc(C(=O)O)c(O)c4ccccc34)cc2)cc1"
Output: Satisfied

Input: Lab note: confirm whether the reported Ki for this compound is below 4 µM, equality not counting. compound: O=C(O)C1Cc2ccccc2N(S(=O)(=O)c2ccc(F)cc2)C1 (racemic)
Output: Not satisfied

Input: Lab note: confirm whether the reported Ki for this compound is below 4 µM, equality not counting. compound: NS(=O)(=O)c1cc(C(=O)O)c(O)c2ccccc12 [Compound 3b, 1-Hydroxy-4-sulfamoyl-2-naphthoic Acid]
Output: Not satisfied

Input: Lab note: confirm whether the reported Ki for this compound is below 4 µM, equality not counting. compound: "O=C(O)c1cc(S(=O)(=O)N2CCCCC2)c2ccccc2c1O"
Output: Satisfied

Input: Lab note: confirm whether the reported Ki for this compound is below 4 µM, equality not counting. compound: "COc1ccc(NS(=O)(=O)c2cc(C(=O)O)c(O)c3ccccc23)cc1"
Output: Not satisfied

Input: Lab note: confirm whether the reported Ki for this compound is below 4 µM, equality not counting. compound: Cc1cc(Oc2ccc(S(=O)(=O)N(CC(C)C)c3ccc(O)c(C(=O)O)c3)cc2)cc(C)c1Cl [JY-5-304 18bd]
Output: Satisfied

Input: Lab note: confirm whether the reported Ki for this compound is below 4 µM, equality not counting. compound: O=C(O)C1Cc2ccccc2N(S(=O)(=O)c2ccccc2)C1 (racemic)
Output: Not satisfied

Input: Lab note: confirm whether the reported Ki for this compound is below 4 µM, equality not counting. compound: "O=C(O)c1cc(S(=O)(=O)Nc2cccc(-c3ccccc3)c2)c2ccccc2c1O"
Output: Satisfied

###

In this section, each of the compounds is paired with its reported Selectivity, Ki (Bcl-xL) divided by Ki (Mcl-1).
Tested on: Mcl-1
Test: Fluorescence polarization competition assay (FPCA), Mcl-1 / FITC-Bak BH3 peptide
Format: binding, human
Settings: Mcl-1 over Bcl-xL
Please reply with the number alone, leaving off any unit.

Use the examples below as a reference point.
molecular_string	recorded_result
O=C(O)c1cc(S(=O)(=O)Nc2ccc(Oc3cccc4ccccc34)cc2)c2ccccc2c1O	3.7
Cc1ccc(Oc2ccc(NS(=O)(=O)c3cc(C(=O)O)c(O)c4ccccc34)cc2)cc1	2.5
O=C(O)c1cc(S(=O)(=O)Nc2ccc(Oc3cccc(Br)c3)cc2)c2ccccc2c1O	3.8

Input: Request the reported Selectivity, Ki (Bcl-xL) divided by Ki (Mcl-1) associated with "Cc1cc(C)cc(Oc2ccc(NS(=O)(=O)c3cc(C(=O)O)c(O)c4ccccc34)cc2)c1"
Output: 1.4

Input: Request the reported Selectivity, Ki (Bcl-xL) divided by Ki (Mcl-1) associated with "O=C(O)c1cc(S(=O)(=O)Nc2ccc([N+](=O)[O-])cc2)c2ccccc2c1O"
Output: 5.2

###

Molecular target: Mcl-1 (Homo sapiens (Human), UniProt Q07820)
Assay: Fluorescence polarization competition assay (FPCA), Mcl-1 / FITC-Bak BH3 peptide
Type: binding
Details: FPCA with FITC-Bak; Ki from IC50 by Nikolovska-Coleska equation; listed as 8c; read-out: Mcl-1 Ki
Description: The tagged protein was initially purified from the crude cell lysate by immobilized metal affinity chromatography (IMAC) chromatography (GE Healthcare Life Sciences), and after dialysis to remove the imidazole the affinity tag was cleaved using PreScission Protease (GE Healthcare Life Sciences). […] The target molecules were assayed for their abilities to disrupt the Mcl-1-Bak-BH3 PPI in a fluorescence polarization competition (FPC) assay with Mcl-1 and FITC-labeled Bak-BH3 peptide. […]
readout: pKi
// field semantics: pKi = negative decimal log of concentration (mol/L)

Input: Param readout = pKi; param system = Mcl-1 (Homo sapiens (Human), UniProt Q07820); param query = "CC(C)CN(c1ccc(C(=O)O)cc1)S(=O)(=O)c1ccc(-c2ccccc2)cc1" ; response: value
Output: 4.78

###

In this section, each of the compounds is paired with its reported Mcl-1 Exp ΔG.
Biological target: Mcl-1 (Homo sapiens (Human), UniProt Q07820)
Test: Fluorescence polarization competition assay (FPCA), Mcl-1 / FITC-Bak BH3 peptide
Type: binding
Details: ΔG=−RTlnKi from experimental Ki
API: value field is a number in kcal/mol; no unit string.

Input: Request the reported Mcl-1 Exp ΔG associated with O=C(O)c1cc(S(=O)(=O)NCC2CCCCC2)c2ccccc2c1O [3g; MEL-3-006]
Output: -7.00

Input: Request the reported Mcl-1 Exp ΔG associated with NS(=O)(=O)c1cc(C(=O)O)c(O)c2ccccc12 [3b; SF-5-294]
Output: -5.46

Input: Request the reported Mcl-1 Exp ΔG associated with CC(C)Oc1ccc(NS(=O)(=O)c2cc(C(=O)O)c(O)c3ccccc23)cc1 [3aa; SF-5-293]
Output: -5.82

###

Molecular target: Mcl-1 (Homo sapiens (Human))
Test: Fluorescence polarization competition assay (FPCA), Mcl-1 / FITC-Bak BH3 peptide
Format: binding
Details: ΔG=−RTlnKi from experimental Ki
Experimental: The tagged protein was initially purified from the crude cell lysate by immobilized metal affinity chromatography (IMAC) chromatography (GE Healthcare Life Sciences), and after dialysis to remove the imidazole the affinity tag was cleaved using PreScission Protease (GE Healthcare Life Sciences). […] The target molecules were assayed for their abilities to disrupt the Mcl-1-Bak-BH3 PPI in a fluorescence polarization competition (FPC) assay with Mcl-1 and FITC-labeled Bak-BH3 peptide. […]
Would you please tag the item 1.0 when its Mcl-1 Exp ΔG is -8 kcal/mol or above, and 0.0 when it is below?

Known results for molecules:
molecular_string	assay_target	label_class
O=C(O)c1cc(S(=O)(=O)N2CCCCC2)c2ccccc2c1O	Mcl-1 (Homo sapiens (Human))	1.0
O=C(O)c1cc(S(=O)(=O)Nc2ccc(Oc3ccc(Cl)cc3Cl)cc2)c2ccccc2c1O	Mcl-1 (Homo sapiens (Human))	0.0
O=C(O)c1cc(S(=O)(=O)NCc2ccccc2Cl)c2ccccc2c1O	Mcl-1 (Homo sapiens (Human))	1.0
O=C(O)c1cc(S(=O)(=O)Nc2ccccc2)c2ccccc2c1O	Mcl-1 (Homo sapiens (Human))	1.0
Cc1ccc(Oc2ccc(NS(=O)(=O)c3cc(C(=O)O)c(O)c4ccccc34)cc2)cc1	Mcl-1 (Homo sapiens (Human))	0.0

Input: hey, is Mcl-1 Exp ΔG for this one >= -8 kcal/mol? "O=C(O)c1cc(S(=O)(=O)Nc2ccc3ccccc3c2)c2ccccc2c1O"
Output: 1.0

Input: hey, is Mcl-1 Exp ΔG for this one >= -8 kcal/mol? "O=C(O)c1cc(S(=O)(=O)Nc2cccc3ccccc23)c2ccccc2c1O"
Output: 1.0
